Values compiled from ChEMBL document CHEMBL4507274.

test system: ACHN; experiment: Kidney ACHN cell line MDS Pharma Services Proliferation Assay; format: functional, cell-based, Homo sapiens; settings: Homo sapiens, ACHN
Measure: IC50 (µM)

> print(dat)
                                   molecule  measure  recorded.value
1  Cc1c[nH]c2nccc(Oc3c(F)cc(Nc4cc(Cl)nc(N)n4)cc3F)c12 [BAY-549]     IC50             3.6

---

tested on: PC-3; assay: Prostate PC-3 cell line MDS Pharma Services Proliferation Assay; type: functional, cell-based, Homo sapiens; conditions: Homo sapiens, PC-3
pIC50: −log10 of the molar value.
Measure: pIC50

> print(dat)
                                   molecule  measure  recorded.value
1  Cc1c[nH]c2nccc(Oc3c(F)cc(Nc4cc(Cl)nc(N)n4)cc3F)c12 [BAY-549]    pIC50            5.03
